- Test system: MET
- PROTOCOL TEXT: MET biochemical kinase assay
- Design: species or system human; concentration or dose not given beside the values
Listed compounds paired with reported Met Kinase % Inhibition
Provide only the numeric value, understood in %.

• Cc1c(Br)ccc2c1C(=Cc1cc(Cl)c(OCc3ccccc3)c(C(C)(C)C)c1)C(=O)N2 = 43.0
• CCCCN(CCCC)c1ccc(C=C2C(=O)Nc3ccc(CCCl)cc32)cc1 = 27.0
• CSc1ccc(C=C2C(=O)Nc3ccc(Br)c(C)c32)s1 = 26.7
• COc1cc(OC)c(C=C2C(=O)Nc3ccc(Br)c(C)c32)c(OC)c1 = 18.4
• COc1c(C(C)(C)C)cc(C=C2C(=O)Nc3ccc(CCCl)cc32)cc1C(C)(C)C = 20.3

Consider Cc1c(Br)ccc2c1C(=Cc1ncc[nH]1)C(=O)N2 . Its measured Met Kinase % Inhibition is 30.0

----------
- TARGET DESC: PDGF-R (Homo sapiens)
- Sequence (P09619 33-1106, species assumed): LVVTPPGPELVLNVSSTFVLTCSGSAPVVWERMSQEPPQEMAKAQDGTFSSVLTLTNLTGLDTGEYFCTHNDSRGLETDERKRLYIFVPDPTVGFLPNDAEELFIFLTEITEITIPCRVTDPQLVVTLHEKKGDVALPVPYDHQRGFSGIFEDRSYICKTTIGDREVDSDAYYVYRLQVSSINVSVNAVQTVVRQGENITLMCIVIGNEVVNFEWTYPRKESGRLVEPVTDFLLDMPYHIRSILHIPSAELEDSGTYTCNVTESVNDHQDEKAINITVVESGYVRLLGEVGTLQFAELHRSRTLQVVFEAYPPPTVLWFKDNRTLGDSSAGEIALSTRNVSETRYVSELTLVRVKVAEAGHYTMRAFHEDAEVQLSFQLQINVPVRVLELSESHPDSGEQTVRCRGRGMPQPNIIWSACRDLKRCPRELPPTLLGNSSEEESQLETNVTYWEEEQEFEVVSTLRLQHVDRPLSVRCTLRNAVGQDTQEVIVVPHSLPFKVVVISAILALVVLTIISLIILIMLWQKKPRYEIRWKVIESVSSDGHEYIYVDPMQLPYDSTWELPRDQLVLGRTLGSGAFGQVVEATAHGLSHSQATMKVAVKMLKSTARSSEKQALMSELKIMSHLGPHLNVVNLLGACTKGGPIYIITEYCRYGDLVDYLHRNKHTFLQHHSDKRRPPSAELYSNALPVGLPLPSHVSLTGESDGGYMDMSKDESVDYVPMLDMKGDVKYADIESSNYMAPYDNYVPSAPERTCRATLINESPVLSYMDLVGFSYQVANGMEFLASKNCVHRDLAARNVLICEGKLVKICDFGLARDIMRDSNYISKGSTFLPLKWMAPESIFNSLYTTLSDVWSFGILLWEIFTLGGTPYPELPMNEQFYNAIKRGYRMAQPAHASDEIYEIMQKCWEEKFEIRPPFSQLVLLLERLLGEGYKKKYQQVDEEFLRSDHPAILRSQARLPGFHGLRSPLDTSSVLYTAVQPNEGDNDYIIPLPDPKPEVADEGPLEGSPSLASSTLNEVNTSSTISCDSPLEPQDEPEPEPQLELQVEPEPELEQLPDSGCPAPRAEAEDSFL
- PROTOCOL TEXT: PDGF-R ELISA
- Assay type: cell-based
PDGF Kinase %Inhibition values, listed per item
Write the value in % as a bare number.

// solved cases for PDGF Kinase %Inhibition follow
- CNS(=O)(=O)c1ccc2c(c1)C(=CC1CC(OC)OC1OC)C(=O)N2 (stereo not shown): -3.3
- CC(C)(C)c1cc(C=C2C(=O)Nc3c(Br)cc(Br)cc32)cc(Cl)c1O: 15.2
- COc1c(C(C)(C)C)cc(C=C2C(=O)Nc3ccc(Br)c(C)c32)cc1C(C)(C)C: 19.2

// next entry
PDGF Kinase %Inhibition on PDGF-R (Homo sapiens) for Cc1cn(C)cc1C=C1C(=O)Nc2c(Br)cc(Br)cc21 is 22.1

----------
- System: MET
- PROTOCOL TEXT: MET biochemical kinase assay
- Set-up: species or system human; concentration or dose not given beside the values
Classify as follows. Reported Met Kinase % Inhibition greater than or equal to 40%: label 1. Reported Met Kinase % Inhibition below: label 0.

Here's what some known entries look like.
* O=C1Nc2ccc(S(=O)(=O)N3CCOCC3)cc2C1=Cc1ccc([N+](=O)[O-])o1 | label 0
* CN(C)c1ccc(C=C2C(=O)Nc3ccc(CCCl)cc32)c2ccccc12 | label 1
* CN1C(=O)C(=C2C(=O)Nc3c(Br)cc(Br)cc32)c2ccccc21 | label 1
* O=C1Nc2c(Br)cc(Br)cc2C1=Cc1cc2ccccc2o1 | label 1
* O=C1Nc2ccc(S(=O)(=O)N3CCOCC3)cc2C1=Cc1ccco1 | label 0
* CNS(=O)(=O)c1ccc2c(c1)C(=Cc1cc(OC)cc(OC)c1)C(=O)N2 | label 0

Q: Given CNS(=O)(=O)c1ccc2c(c1)C(=Cc1ccc3ccccc3c1O)C(=O)N2 , state whether its Met Kinase % Inhibition is at least 40%.
A: label 1

Q: Met Kinase % Inhibition >= 40% for O=C1Nc2ccc(S(=O)(=O)N3CCOCC3)cc2C1=Cc1ccc(F)cc1C(F)(F)F ?
A: label 0

----------
- TARGET DESC: FLK-1 receptor (Mus musculus, UniProt P35918)
- Construct: expressed in transfected cells; host or cells: NIH3T3 C7#3
- Sequence (P35918 20-1345): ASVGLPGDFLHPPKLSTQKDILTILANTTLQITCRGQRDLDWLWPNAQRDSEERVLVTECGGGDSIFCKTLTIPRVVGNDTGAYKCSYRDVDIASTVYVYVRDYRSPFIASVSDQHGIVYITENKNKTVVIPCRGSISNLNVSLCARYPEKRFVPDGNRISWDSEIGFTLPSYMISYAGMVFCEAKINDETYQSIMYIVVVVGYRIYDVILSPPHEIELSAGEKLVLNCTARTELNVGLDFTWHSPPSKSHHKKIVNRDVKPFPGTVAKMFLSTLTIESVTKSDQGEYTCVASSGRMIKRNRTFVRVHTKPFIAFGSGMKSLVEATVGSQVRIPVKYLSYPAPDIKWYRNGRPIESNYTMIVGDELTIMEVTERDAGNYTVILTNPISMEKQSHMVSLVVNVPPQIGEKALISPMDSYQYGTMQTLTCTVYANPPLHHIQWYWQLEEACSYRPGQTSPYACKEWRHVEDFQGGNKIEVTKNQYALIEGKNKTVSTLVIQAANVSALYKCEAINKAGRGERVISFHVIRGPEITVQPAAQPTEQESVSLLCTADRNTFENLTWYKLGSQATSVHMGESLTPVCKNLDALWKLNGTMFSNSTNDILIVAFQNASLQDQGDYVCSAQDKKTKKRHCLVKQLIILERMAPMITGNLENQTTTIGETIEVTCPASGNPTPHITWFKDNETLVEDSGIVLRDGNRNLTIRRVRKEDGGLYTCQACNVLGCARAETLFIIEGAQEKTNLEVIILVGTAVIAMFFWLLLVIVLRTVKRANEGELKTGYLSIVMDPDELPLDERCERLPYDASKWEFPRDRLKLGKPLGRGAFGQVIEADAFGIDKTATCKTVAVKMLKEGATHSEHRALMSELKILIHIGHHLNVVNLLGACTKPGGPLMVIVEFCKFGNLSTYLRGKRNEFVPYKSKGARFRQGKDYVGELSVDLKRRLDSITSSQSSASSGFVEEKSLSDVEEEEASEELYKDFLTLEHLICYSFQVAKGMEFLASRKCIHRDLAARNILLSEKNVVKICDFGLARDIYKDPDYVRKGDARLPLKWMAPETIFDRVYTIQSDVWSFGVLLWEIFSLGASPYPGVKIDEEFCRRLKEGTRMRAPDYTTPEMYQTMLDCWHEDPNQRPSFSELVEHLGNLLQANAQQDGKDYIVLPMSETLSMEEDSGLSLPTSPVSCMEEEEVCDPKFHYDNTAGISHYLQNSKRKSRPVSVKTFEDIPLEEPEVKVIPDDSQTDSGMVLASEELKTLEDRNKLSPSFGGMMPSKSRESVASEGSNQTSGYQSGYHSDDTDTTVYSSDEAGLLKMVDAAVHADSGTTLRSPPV
- PROTOCOL TEXT: FLK-1 ELISA (kinase activity of the FLK-1 receptor in FLK-1/NIH3T3 cells, VEGF stimulated)
- Assay type: cell-based
MEASURED METRIC: Fik Kinase %Inhibition

Worked examples follow.
• CNS(=O)(=O)c1ccc2c(c1)C(=Cc1ccc(N(C)C)c3ccccc13)C(=O)N2 = 12.4%
• O=C1Nc2ccc(S(=O)(=O)Nc3ccc(C(F)(F)F)cc3)cc2C1=Cc1cc2c([nH]1)CCCC2 = 10.8%

Measured Fik Kinase %Inhibition of CCOc1ccc(C=C2C(=O)Nc3ccc(Br)c(C)c32)cc1OC : 4.1%

Item: CNS(=O)(=O)c1ccc2c(c1)C(=Cc1cc([N+](=O)[O-])c(OC)c(C(C)(C)C)c1)C(=O)N2 | Fik Kinase %Inhibition: 33.2%

# Fik Kinase %Inhibition (compound: Cc1cc(C=C2C(=O)Nc3ccc(Br)c(C)c32)ccc1O ) is 17.8%

Lab book: Fik Kinase %Inhibition of CNS(=O)(=O)c1ccc2c(c1)C(=Cc1ccc([N+](=O)[O-])cc1)C(=O)N2 noted as 0.0%

Just so you know, measured Fik Kinase %Inhibition for CCc1ccc(C=C2C(=O)Nc3ccc(I)cc32)o1 came out at 8.5%

Please fill in: Fik Kinase %Inhibition reported for Cn1c(C=C2C(=O)Nc3ccc(CCCl)cc32)nc2ccccc21 = 16.4%

Sample CC(C)c1cc(C=C2C(=O)Nc3ccc(I)cc32)cc(C(C)C)c1Oc1ccccc1 ; Fik Kinase %Inhibition observed: -1.3%

Recorded Fik Kinase %Inhibition (compound CSc1ccc(C=C2C(=O)Nc3c(Br)cc(Br)cc32)cc1 ): -4.0%

The value of Fik Kinase %Inhibition measured for the compound COc1ccc(C=C2C(=O)Nc3ccc(CCCl)cc32)cc1C(C)(C)C turned out to be 17.2%

Fik Kinase %Inhibition reading for Cc1cc(C=C2C(=O)Nc3ccc(I)cc32)cc(C)c1OCc1ccccc1 : 1.2%

Field Fik Kinase %Inhibition (entry O=C1Nc2ccc(CCCl)cc2C1=Cc1cc2c(cc1Cl)OCO2 ) reads 2.9%

Form field Fik Kinase %Inhibition, entry CNS(=O)(=O)c1ccc2c(c1)C(=Cc1cc(Cl)c(OCc3ccccc3)c(C(C)(C)C)c1)C(=O)N2 : 25.5%

Fik Kinase %Inhibition measured on O=C1Nc2c(Br)cc(Br)cc2C1=Cc1cccc(Br)c1 = -3.1%

----------
- System: MET
- PROTOCOL TEXT: MET biochemical kinase assay
- Design: species or system human; concentration or dose not given beside the values
Field: class. Source value: Met Kinase % Inhibition. Ranges: bottom end = under 40%, midrange = from 40% up to 60%, top end = 60% and over

- O=C1Nc2ccc(I)cc2C1=Cc1c[nH]c(=O)[nH]c1=O [10731/B08]: midrange

Q: // return the class label for CNS(=O)(=O)c1ccc2c(c1)C(=Cc1cc3c(cc1Cl)OCO3)C(=O)N2 [10727/D06]
A: bottom end

Q: Category of CNS(=O)(=O)c1ccc2c(c1)C(=Cc1ccc(OC)c(OC)c1)C(=O)N2 [10720/D04] , please.
A: bottom end

Q: Which bin, given its Met Kinase % Inhibition, does O=C1Nc2ccc(CCCl)cc2C1=Cc1ccc(O)c([N+](=O)[O-])c1 [10724/G03] occupy?
A: bottom end

Q: Which bin, given its Met Kinase % Inhibition, does O=C1Nc2ccc(S(=O)(=O)Nc3ccc(C(F)(F)F)cc3)cc2C1=Cc1ccc(O)c(O)c1 [10719/E03] occupy?
A: top end

----------
- TARGET DESC: EGFR (Homo sapiens, UniProt P00533)
- Construct: Add 7 ug A431 cell lysate per well (EGFR source); endogenous in cells; host or cells: A431
- Sequence (P00533 25-1210): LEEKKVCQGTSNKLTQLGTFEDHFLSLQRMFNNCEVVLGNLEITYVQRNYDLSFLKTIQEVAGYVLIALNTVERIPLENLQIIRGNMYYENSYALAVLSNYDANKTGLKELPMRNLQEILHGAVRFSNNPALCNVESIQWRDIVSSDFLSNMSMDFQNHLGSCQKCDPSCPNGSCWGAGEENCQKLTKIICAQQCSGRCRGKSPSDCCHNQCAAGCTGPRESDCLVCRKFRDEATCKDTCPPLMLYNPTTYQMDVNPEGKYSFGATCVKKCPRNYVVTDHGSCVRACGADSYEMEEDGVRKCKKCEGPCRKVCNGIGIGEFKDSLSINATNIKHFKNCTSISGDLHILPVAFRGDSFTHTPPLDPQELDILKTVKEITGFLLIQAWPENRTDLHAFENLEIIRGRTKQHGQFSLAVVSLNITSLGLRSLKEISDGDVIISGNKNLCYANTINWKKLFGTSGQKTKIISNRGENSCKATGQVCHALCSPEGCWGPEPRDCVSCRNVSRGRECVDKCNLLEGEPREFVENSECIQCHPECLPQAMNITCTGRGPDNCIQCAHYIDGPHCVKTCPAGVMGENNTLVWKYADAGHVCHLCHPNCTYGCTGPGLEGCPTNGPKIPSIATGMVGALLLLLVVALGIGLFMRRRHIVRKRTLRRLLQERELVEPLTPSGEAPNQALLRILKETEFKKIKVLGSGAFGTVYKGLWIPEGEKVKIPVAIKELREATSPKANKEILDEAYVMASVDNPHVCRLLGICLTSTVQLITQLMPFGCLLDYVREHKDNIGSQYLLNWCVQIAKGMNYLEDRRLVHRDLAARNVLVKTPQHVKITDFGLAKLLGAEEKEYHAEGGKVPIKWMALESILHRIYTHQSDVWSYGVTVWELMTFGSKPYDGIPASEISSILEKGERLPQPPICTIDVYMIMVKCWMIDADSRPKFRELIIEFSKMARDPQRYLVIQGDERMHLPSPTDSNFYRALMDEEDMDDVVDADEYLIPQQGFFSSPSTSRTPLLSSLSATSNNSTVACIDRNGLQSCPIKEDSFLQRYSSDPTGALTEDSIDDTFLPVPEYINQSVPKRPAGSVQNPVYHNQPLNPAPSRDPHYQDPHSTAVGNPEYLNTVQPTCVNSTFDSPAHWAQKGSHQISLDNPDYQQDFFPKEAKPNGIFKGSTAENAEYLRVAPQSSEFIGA
- PROTOCOL TEXT: EGFR ELISA assay (in vitro kinase activity, EGFR captured from A431 cell lysate)
- Assay type: biochemical
- Design: concentration or dose not given beside the values
List of Biochem EGFR %Inhibition values.
Only the number, expressed in %, is required.

- Cc1ccsc1C=C1C(=O)Nc2ccc(I)cc21: 50.6
- Cc1c(Br)ccc2c1C(=Cc1ccc3ccccc3c1O)C(=O)N2: 14.8
- COc1cc(C)cc(O)c1C=C1C(=O)Nc2ccc(I)cc21: -13.7

The reported Biochem EGFR %Inhibition of the compound O=C1Nc2ccc(S(=O)(=O)Nc3ccc(C(F)(F)F)cc3)cc2C1=Cc1ccc(Cl)c([N+](=O)[O-])c1 was 9.3

For reference, reported Biochem EGFR %Inhibition for Cc1cc2occ(C=C3C(=O)Nc4ccc(I)cc43)c(=O)c2cc1C stands at 12.3

----------
- TARGET DESC: FLK-1 receptor (Mus musculus, UniProt P35918)
- Construct: expressed in transfected cells; host or cells: NIH3T3 C7#3
- PROTOCOL TEXT: FLK-1 ELISA (kinase activity of the FLK-1 receptor in FLK-1/NIH3T3 cells, VEGF stimulated)
- Type: cell-based
MEASURED METRIC: Fik Kinase %Inhibition (%)
Dear colleague, please return just the value in %, with no unit written.

Solved cases (4 shown):
* CNS(=O)(=O)c1ccc2c(c1)C(=Cc1cccc(C(F)(F)F)c1F)C(=O)N2 | 8.1
* O=C1Nc2ccc(S(=O)(=O)N3CCOCC3)cc2C1=Cc1cccs1 | 0.5
* COc1cc(C)cc(O)c1C=C1C(=O)Nc2ccc(Br)c(C)c21 | -9.3
* O=C1Nc2ccc(CCCl)cc2C1=Cc1c(F)cc(F)cc1F | 5.0

Entry CC(C)(C)c1cc(C=C2C(=O)Nc3c(Br)cc(Br)cc32)cc(Cl)c1OCc1ccccc1 , Fik Kinase %Inhibition reported as 10.2

In plain terms, O=C1Nc2ccc(I)cc2C1=Cc1cc(Br)ccc1O has a documented Fik Kinase %Inhibition of -2.6

get_value(item= CNS(=O)(=O)c1ccc2c(c1)C(=Cc1ccc(O)c(O)c1)C(=O)N2 , readout=Fik Kinase %Inhibition) returns 4.8

Value of measured Fik Kinase %Inhibition for the entry O=C1Nc2ccc(S(=O)(=O)N3CCOCC3)cc2C1=Cc1ccc([N+](=O)[O-])o1 : 10.1

// provenance: patent EP1247803A2
